# experiment-description: Pharmacokinetic analysis of SYN120 tablets, single oral dose (Example 8)
# Format: in vivo, human
# applied-conditions: both sexes, human, plasma, oral; single doses of 100 mg and above; read-out: Tmax estimates
readout-name: Tmax

Enquiry: Looking for the measured Tmax of NC(=O)NC[C@@H]1CCCc2cc(S(=O)(=O)c3cccc(F)c3)ccc21 [SYN120] , can you help?
Return: ~4 h

====

# experiment-description: Pharmacokinetic analysis of SYN120 tablets, single oral dose (Example 8)
# Format: in vivo, human
# applied-conditions: female, human, plasma, oral, 100 mg, 100 mg single dose, females; arithmetic mean; read-out: AUC0-24
readout-name: AUC(0-t) (ng·h/mL)
Dear colleague, please return just the value in ng·h/mL, with no unit written.

Enquiry: Looking for the measured AUC(0-t) of NC(=O)NC[C@@H]1CCCc2cc(S(=O)(=O)c3cccc(F)c3)ccc21 [SYN120] , can you help?
Return: 4670

====

# experiment-description: Pharmacokinetic analysis of SYN120 tablets, single oral dose (Example 8)
# Format: in vivo, human
# applied-conditions: female, human, plasma; single oral dose 100 mg (females), Cohort E; geometric mean
# Experimental: Pharmacokinetic (PK) analysis was performed on 42 subjects (36 males; 6 females) who received SYN120 oral tablets. In this study, subjects received a single oral dose of SYN120 at one of the following doses: 2 mg; 10 mg; 30 mg; 100 mg; 300 mg; and 600 mg. The SYN120 oral tablets used in this study were formulated for immediate release at tablet strengths of 2 mg, 10 mg, and 50 mg. […]
readout-name: AUC(0-inf) (ng·h/mL)
Dear colleague, please return just the value in ng·h/mL, with no unit written.

Enquiry: Looking for the measured AUC(0-inf) of NC(=O)NC[C@@H]1CCCc2cc(S(=O)(=O)c3cccc(F)c3)ccc21 [SYN120] , can you help?
Return: 5120

====

# experiment-description: Pharmacokinetic analysis of SYN120 tablets, single oral dose (Example 8)
# Assay type: in vivo, human
# applied-conditions: both sexes, human, plasma, oral; range across single-dose treatment groups; read-out: mean apparent elimination half-life
readout-name: half-life

Enquiry: Looking for the measured half-life of NC(=O)NC[C@@H]1CCCc2cc(S(=O)(=O)c3cccc(F)c3)ccc21 [SYN120] , can you help?
Return: 8.45 to 12.4 h

====

# experiment-description: Pharmacokinetic analysis of SYN120 tablets, single oral dose (Example 8)
# Type: in vivo, human
# applied-conditions: female, human, plasma, oral; 100 mg single dose, females; arithmetic mean
readout-name: AUC(0-inf) (ng·h/mL)
Dear colleague, please return just the value in ng·h/mL, with no unit written.

Enquiry: Looking for the measured AUC(0-inf) of NC(=O)NC[C@@H]1CCCc2cc(S(=O)(=O)c3cccc(F)c3)ccc21 [SYN120] , can you help?
Return: 5980

====

# experiment-description: Pharmacokinetic analysis of SYN120 tablets, single oral dose (Example 8)
# Type: in vivo, human
# applied-conditions: human, plasma; single oral dose 2 mg, Cohort A; geometric mean
# Description: Pharmacokinetic (PK) analysis was performed on 42 subjects (36 males; 6 females) who received SYN120 oral tablets. In this study, subjects received a single oral dose of SYN120 at one of the following doses: 2 mg; 10 mg; 30 mg; 100 mg; 300 mg; and 600 mg. The SYN120 oral tablets used in this study were formulated for immediate release at tablet strengths of 2 mg, 10 mg, and 50 mg. […]
readout-name: Cmax (ng/mL)
Dear colleague, please return just the value in ng/mL, with no unit written.

Enquiry: Looking for the measured Cmax of NC(=O)NC[C@@H]1CCCc2cc(S(=O)(=O)c3cccc(F)c3)ccc21 [SYN120] , can you help?
Return: 11.8
